biological target: T1, Human CD137 ECD (human); test: single mutant vs template dBBDu183H
T1 construct: also called 4-1BB
T1 sequence (chain, as listed by the source limits assumed): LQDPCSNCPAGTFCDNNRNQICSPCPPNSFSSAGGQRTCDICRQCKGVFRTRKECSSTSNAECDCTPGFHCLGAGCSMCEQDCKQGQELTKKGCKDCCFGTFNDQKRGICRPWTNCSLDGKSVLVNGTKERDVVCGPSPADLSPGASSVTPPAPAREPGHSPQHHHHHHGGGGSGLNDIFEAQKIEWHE
Kindly supply the reported fold change of affinity values for the records listed here.
Report the figure along with its unit, number first.

binder: H183/L072 VH Y59K (antibody, name in Kabat numbering, V domains shown) VH: QVQLVESGGGLVQPGRSLRLSCAASGFTFSNAWMHWVRQAPGKGLEWVAQIKDKGNAYAAYKAPSVKGRFTISRDDSKNSIYLQMNSLKTEDTAVYYCHYVHYASASTVLPAFGVDAWGQGTTVTVSS VL: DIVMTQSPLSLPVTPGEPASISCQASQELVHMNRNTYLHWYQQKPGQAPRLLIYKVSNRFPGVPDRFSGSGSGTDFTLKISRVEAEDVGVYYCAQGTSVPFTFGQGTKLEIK
fold change of affinity: 1 fold

Which fold change of affinity value is on record for H183/L072 VH Y59P (antibody, name in Kabat numbering, V domains shown) VH: QVQLVESGGGLVQPGRSLRLSCAASGFTFSNAWMHWVRQAPGKGLEWVAQIKDKGNAYAAYPAPSVKGRFTISRDDSKNSIYLQMNSLKTEDTAVYYCHYVHYASASTVLPAFGVDAWGQGTTVTVSS VL: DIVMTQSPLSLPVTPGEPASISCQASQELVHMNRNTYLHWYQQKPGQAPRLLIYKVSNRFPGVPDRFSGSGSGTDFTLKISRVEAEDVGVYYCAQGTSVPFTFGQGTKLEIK ?
0.3 fold
